# credit: patent US20250049970A1

- subject.of.test: DLL3 (Homo sapiens, UniProt Q9NYJ7)
- Sequence (Q9NYJ7 27-618): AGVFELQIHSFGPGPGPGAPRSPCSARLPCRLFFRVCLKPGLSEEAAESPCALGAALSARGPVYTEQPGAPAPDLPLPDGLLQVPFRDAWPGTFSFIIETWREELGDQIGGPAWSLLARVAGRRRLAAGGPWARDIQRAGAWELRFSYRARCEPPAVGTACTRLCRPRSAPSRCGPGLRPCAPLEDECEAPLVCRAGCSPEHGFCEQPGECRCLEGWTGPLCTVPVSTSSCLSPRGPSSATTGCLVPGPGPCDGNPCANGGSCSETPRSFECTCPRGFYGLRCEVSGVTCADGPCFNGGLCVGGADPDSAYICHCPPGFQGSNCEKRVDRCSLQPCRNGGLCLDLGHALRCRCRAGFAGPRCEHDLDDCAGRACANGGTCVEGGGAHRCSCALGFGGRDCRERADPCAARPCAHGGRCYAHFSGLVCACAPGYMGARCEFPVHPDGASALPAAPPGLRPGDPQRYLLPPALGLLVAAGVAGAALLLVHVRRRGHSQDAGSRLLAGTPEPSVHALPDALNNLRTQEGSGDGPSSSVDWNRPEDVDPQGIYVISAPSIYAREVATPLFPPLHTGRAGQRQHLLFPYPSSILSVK
- procedure.details: SPR KD, biotinylated human DLL3 on streptavidin chip (Table 8)
- Design: biotin (biotinylated)
- experimental.context: biotinylated human DLL3 on streptavidin sensor chip, 25° C., 1:1 binding model; read-out: SPR KD
Where a SMILES comes first, the peptide text is derived from it. Bridges are numbered along the chain shown (N, C = ends). [ ]: non-standard residue; d: D form. The star is where a group is joined. DOTA = O=C(O)CN1CCN(CC(=O)O)CCN(CC(=O)*)CCN(CC(=O)O)CC1; NMeW = CN[C@@H](Cc1c[nH]c2ccccc12)C(=O)O; 2Nal = N[C@@H](Cc1ccc2ccccc2c1)C(=O)O; Gly(4-THP) = N[C@H](C(=O)O)C1CCOCC1
reported.property: Kd

{"compound": "CC[C@H](C)[C@H](NC(=O)[C@@H](NC(=O)[C@H](Cc1c[nH]c2ccccc12)NC(=O)[C@H](CCSC)NC(C)=O)[C@@H](C)O)C(=O)N[C@H]1CSSC[C@@H](C(=O)N[C@@H](Cc2c[nH]c3ccccc23)C(=O)N2CCC[C@H]2C(N)=O)NC(=O)[C@H](CC(=O)O)NC(=O)[C@H](Cc2cnc[nH]2)NC(=O)[C@H](Cc2c[nH]c3ccccc23)NC(=O)[C@H](CC(N)=O)NC(=O)[C@@H](C)NC1=O [compound 7] (Ac-MWTIC[dA]NWHDCWP-NH2; disulfide 5-11)", "subject.of.test": "DLL3 (Homo sapiens, UniProt Q9NYJ7)", "Kd": "10 to 100 nM"}

Item CC(=O)N[C@@H](Cc1c[nH]c2ccccc12)C(=O)N[C@H](C(=O)N[C@H](C(=O)N[C@H]1CSSC[C@@H](C(=O)N[C@@H](Cc2c[nH]c3ccccc23)C(=O)N2CCC[C@H]2C(N)=O)NC(=O)[C@H](CC(=O)O)NC(=O)[C@H](Cc2cnc[nH]2)NC(=O)[C@H](Cc2c[nH]c3ccccc23)NC(=O)[C@H](CC(N)=O)NC(=O)[C@H](CC(N)=O)NC1=O)C1CCOCC1)[C@@H](C)O [compound 338] (Ac-WT[Gly(4-THP)]CNNWHDCWP-NH2; disulfide 4-10) has what recorded Kd?
1 to 10 nM

Item CC[C@H](C)[C@H](NC(=O)[C@@H](NC(=O)[C@H](Cc1c[nH]c2ccccc12)NC(C)=O)[C@@H](C)O)C(=O)N[C@H]1CSSC[C@@H](C(=O)N(C)[C@@H](Cc2c[nH]c3ccccc23)C(=O)N2CCC[C@H]2C(=O)O)NC(=O)[C@H](CC(=O)O)NC(=O)[C@H](Cc2c[nH]cn2)NC(=O)[C@H](Cc2c[nH]c3ccccc23)NC(=O)[C@H](CC(N)=O)NC(=O)[C@H](CC(N)=O)NC1=O [compound 389] (Ac-WTICNNWHDC[NMeW]P-OH; disulfide 4-10) has what recorded Kd?
100 to 300 nM

Item CC[C@H](C)[C@H](NC(=O)[C@@H](NC(=O)[C@H](Cc1c[nH]c2ccccc12)NC(C)=O)[C@@H](C)O)C(=O)N[C@H]1CSSC[C@@H](C(=O)N[C@@H](Cc2c[nH]c3ccccc23)C(=O)N2CCC[C@H]2C(N)=O)NC(=O)[C@H](CC(=O)O)NC(=O)[C@H](CCCCNC(=O)CN2CCN(CC(=O)O)CCN(CC(=O)O)CCN(CC(=O)O)CC2)NC(=O)[C@H](Cc2ccc3ccccc3c2)NC(=O)[C@H](CC(N)=O)NC(=O)[C@H](CC(N)=O)NC1=O [compound 254] (Ac-WTICNN[2Nal]K(DOTA)DCWP-NH2; disulfide 4-10) has what recorded Kd?
< 1 nM

Item CC[C@H](C)[C@H](NC(=O)[C@@H](NC(=O)[C@H](Cc1c[nH]c2ccccc12)NC(=O)[C@H](C)NC(C)=O)[C@@H](C)O)C(=O)N[C@H]1CSSC[C@@H](C(=O)N[C@@H](Cc2c[nH]c3ccccc23)C(=O)N2CCC[C@H]2C(N)=O)NC(=O)[C@H](CC(=O)O)NC(=O)[C@H](Cc2cnc[nH]2)NC(=O)[C@H](Cc2c[nH]c3ccccc23)NC(=O)[C@H](CC(N)=O)NC(=O)[C@H](CC(N)=O)NC1=O [compound 11] (Ac-AWTICNNWHDCWP-NH2; disulfide 5-11) has what recorded Kd?
1 to 10 nM

====

- subject.of.test: DLL3 (Homo sapiens, UniProt Q9NYJ7)
- procedure.details: SPR KD, biotinylated human DLL3 on streptavidin chip (Table 8)
- Design: biotin (biotinylated)
- experimental.context: biotinylated human DLL3 on streptavidin sensor chip, 25° C., 1:1 binding model; read-out: SPR KD
- Description: Biotinylated target ligand human DLL3 was immobilized on a streptavidin sensor chip. A reference surface was set up for nonspecific binding and refractive index changes. […] Sensorgram curves were fitted with 1:1 binding model, and affinity and kinetic parameters were obtained using Biacore Insight evaluation 4.0. software.
pKd: −log10 of the molar value. Where a SMILES comes first, the peptide text is derived from it. Bridges are numbered along the chain shown (N, C = ends). [ ]: non-standard residue; d: D form. Nle = CCCC[C@H](N)C(=O)O
reported.property: pKd

Example molecules with recorded pKd:
{"molecule": "CCC(C)(C)[C@H](NC(=O)[C@@H](NC(=O)[C@H](Cc1c[nH]c2ccccc12)NC(C)=O)[C@@H](C)O)C(=O)N[C@H]1CSSC[C@@H](C(=O)N[C@@H](Cc2c[nH]c3ccccc23)C(=O)N2CCC[C@H]2C(N)=O)NC(=O)[C@H](CC(=O)O)NC(=O)[C@H](CCCCNC(=O)CN2CCN(CC(=O)O)CCN(CC(=O)O)CCN(CC(=O)O)CC2)NC(=O)[C@H](Cc2ccc3ccccc3c2)NC(=O)[C@H](CC(N)=O)NC(=O)C(CN2CCOCC2)NC1=O (single isomer, unassigned) [compound 311]", "subject.of.test": "DLL3 (Homo sapiens, UniProt Q9NYJ7)", "reported.property": "pKd", "observed.result": "> 9.00"}
{"molecule": "CCC(C)(C)[C@H](NC(=O)[C@@H](NC(=O)[C@H](Cc1c[nH]c2ccccc12)NC(C)=O)[C@@H](C)O)C(=O)N[C@H]1CSSC[C@@H](C(=O)N[C@@H](Cc2c[nH]c3ccccc23)C(=O)N2CCC[C@H]2C(N)=O)NC(=O)[C@H](CC(=O)O)NC(=O)[C@H](CCCCNC(=O)CN2CCN(CC(=O)O)CCN(CC(=O)O)CCN(CC(=O)O)CC2)NC(=O)[C@H](Cc2ccc3ccccc3c2)NC(=O)[C@H](CC(N)=O)NC(=O)C(CN2CCOCC2)NC1=O (single isomer, unassigned) [compound 306]", "subject.of.test": "DLL3 (Homo sapiens, UniProt Q9NYJ7)", "reported.property": "pKd", "observed.result": "> 9.00"}
{"molecule": "CCCC[C@H](NC(C)=O)C(=O)N[C@@H](Cc1c[nH]c2ccccc12)C(=O)N[C@H](C(=O)N[C@H](C(=O)N[C@H]1CSSC[C@@H](C(=O)N[C@@H](Cc2c[nH]c3ccccc23)C(=O)N2CCC[C@H]2C(N)=O)NC(=O)[C@H](CC(=O)O)NC(=O)[C@H](Cc2cnc[nH]2)NC(=O)[C@H](Cc2c[nH]c3ccccc23)NC(=O)[C@H](CC(N)=O)NC(=O)[C@H](CC(N)=O)NC1=O)[C@@H](C)CC)[C@@H](C)O [compound 441] (Ac-[Nle]WTICNNWHDCWP-NH2; disulfide 5-11)", "subject.of.test": "DLL3 (Homo sapiens, UniProt Q9NYJ7)", "reported.property": "pKd", "observed.result": "7.00 to 8.00"}
{"molecule": "CC(=O)N[C@@H](Cc1c[nH]c2ccccc12)C(=O)N[C@H](C(=O)N[C@@H](CC(C)(C)C)C(=O)N[C@H]1CSSC[C@@H](C(=O)N[C@@H](Cc2c[nH]c3ccccc23)C(=O)N2CCC[C@H]2C(N)=O)NC(=O)[C@H](CC(=O)O)NC(=O)[C@H](CCCCNC(=O)CN2CCN(CC(=O)O)CCN(CC(=O)O)CCN(CC(=O)O)CC2)NC(=O)[C@H](Cc2ccc3ccccc3c2)NC(=O)[C@H](CC(N)=O)NC(=O)C(CN2CCOCC2)NC1=O)[C@@H](C)O (single isomer, unassigned) [compound 310]", "subject.of.test": "DLL3 (Homo sapiens, UniProt Q9NYJ7)", "reported.property": "pKd", "observed.result": "> 9.00"}

Item CSCC[C@H](NC(C)=O)C(=O)N[C@@H](Cc1c[nH]c2ccccc12)C(=O)N[C@H](C(=O)N[C@@H](C)C(=O)N[C@H]1CSSC[C@@H](C(=O)N[C@@H](Cc2c[nH]c3ccccc23)C(=O)N2CCC[C@H]2C(N)=O)NC(=O)[C@H](CC(=O)O)NC(=O)[C@H](Cc2c[nH]cn2)NC(=O)[C@H](Cc2c[nH]c3ccccc23)NC(=O)[C@H](CC(N)=O)NC(=O)[C@H](CC(N)=O)NC1=O)[C@@H](C)O [compound 14] (Ac-MWTACNNWHDCWP-NH2; disulfide 5-11) has what recorded pKd?
7.00 to 8.00
